Origin of measurements: ChEMBL document CHEMBL4152341

# System: A549
# assay name: Antiproliferative activity against human A549 cells after 72 hrs by CCK8 assay
# Type: functional, cell-based
# condition label: A549, 72 h
Flag rule - IC50 less than 4 µM flags met; the remaining entries get not met.

[[record]]
molecule = "CC(=O)Nc1ccc(C(=O)Nc2ccccc2N)cc1 [TACEDINALINE]"
group = "not met"

[[record]]
molecule = "CCOc1cc(C(C)(C)C)ccc1C1=N[C@@H](c2ccc(Cl)cc2)[C@@H](c2ccc(Cl)cc2)N1C(=O)N1CCN(CCCCCCC(=O)NO)CC1"
group = "met"

[[record]]
molecule = "CCOc1cc(C(C)(C)C)ccc1C1=NC(c2ccc(Cl)cc2)C(c2ccc(Cl)cc2)N1C(=O)NCCCCC(=O)Nc1ccccc1N (stereo unspecified)"
group = "not met"

[[record]]
molecule = "CCOc1cc(C(C)(C)C)ccc1C1=NC(c2ccc(Cl)cc2)C(c2ccc(Cl)cc2)N1C(=O)NCc1ccc(C(=O)NO)cc1 (stereo unspecified)"
group = "not met"

[[record]]
molecule = "CCOc1cc(C(C)(C)C)ccc1C1=NC(c2ccc(Cl)cc2)C(c2ccc(Cl)cc2)N1C(=O)N1CCC(Nc2ncc(C(=O)NO)cn2)CC1 (stereo unspecified)"
group = "met"

[[record]]
molecule = "CCOc1cc(C(C)(C)C)ccc1C1=NC(c2ccc(Cl)cc2)C(c2ccc(Cl)cc2)N1C(=O)NCCCCCCC(=O)Nc1ccccc1N (stereo unspecified)"
group = "not met"

[[record]]
molecule = "CCOc1cc(C(C)(C)C)ccc1C1=NC(c2ccc(Cl)cc2)C(c2ccc(Cl)cc2)N1C(=O)NCCCCCCCC(=O)NO (stereo unspecified)"
group = "not met"

[[record]]
molecule = "CCOc1cc(C(C)(C)C)ccc1C1=NC(c2ccc(Cl)cc2)C(c2ccc(Cl)cc2)N1C(=O)N1CCN(CCCCCCCC(=O)NO)CC1 (stereo unspecified)"
group = "met"

[[record]]
molecule = "CCOc1cc(C(C)(C)C)ccc1C1=N[C@H](c2ccc(Cl)cc2)[C@H](c2ccc(Cl)cc2)N1C(=O)N1CCN(CCCCCCC(=O)NO)CC1"
group = "not met"

[[record]]
molecule = "CCOc1cc(C(C)(C)C)ccc1C1=NC(c2ccc(Cl)cc2)C(c2ccc(Cl)cc2)N1C(=O)NCCCCC(=O)NO (stereo unspecified)"
group = "not met"

[[record]]
molecule = "CCOc1cc(C(C)(C)C)ccc1C1=NC(c2ccc(Cl)cc2)C(c2ccc(Cl)cc2)N1C(=O)N1CCN(c2ncc(C(=O)NO)cn2)CC1 (stereo unspecified)"
group = "met"

[[record]]
molecule = "CCOc1cc(C(C)(C)C)ccc1C1=NC(c2ccc(Cl)cc2)C(c2ccc(Cl)cc2)N1C(=O)N1CCN(CC(=O)NO)CC1 (stereo unspecified)"
group = "not met"

[[record]]
molecule = "CCOc1cc(C(C)(C)C)ccc1C1=NC(c2ccc(Cl)cc2)C(c2ccc(Cl)cc2)N1C(=O)N1CCN(CCCCCC(=O)NO)CC1 (stereo unspecified)"
group = "met"

[[record]]
molecule = "CCOc1cc(C(C)(C)C)ccc1C1=NC(c2ccc(Cl)cc2)C(c2ccc(Cl)cc2)N1C(=O)N1CCC(C(=O)Nc2ccc(/C=C/C(=O)NO)cc2)CC1 (stereo unspecified)"
group = "not met"

[[record]]
molecule = "CCOc1cc(C(C)(C)C)ccc1C1=NC(c2ccc(Cl)cc2)C(c2ccc(Cl)cc2)N1C(=O)NCCCCCCCC(=O)Nc1ccccc1N (stereo unspecified)"
group = "not met"


----------
# tested system: Histone deacetylase 8 (Homo sapiens)
# Sequence (Q9BY41 whole entry): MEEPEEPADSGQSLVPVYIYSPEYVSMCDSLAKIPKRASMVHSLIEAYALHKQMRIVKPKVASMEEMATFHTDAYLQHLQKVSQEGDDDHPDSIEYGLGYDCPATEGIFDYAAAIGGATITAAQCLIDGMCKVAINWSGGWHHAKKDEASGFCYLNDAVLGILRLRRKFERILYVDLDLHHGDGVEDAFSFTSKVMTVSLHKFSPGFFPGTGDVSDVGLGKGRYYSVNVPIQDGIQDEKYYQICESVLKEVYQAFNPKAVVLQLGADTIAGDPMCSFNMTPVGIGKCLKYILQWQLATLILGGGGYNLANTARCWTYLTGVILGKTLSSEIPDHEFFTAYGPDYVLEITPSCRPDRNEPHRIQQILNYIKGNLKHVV
# assay name: Inhibition of HDAC8 (unknown origin) after 30 mins by fluorescence assay
measured property: IC50 (nM)

[[record]]
compound = "CCOc1cc(C(C)(C)C)ccc1C1=NC(c2ccc(Cl)cc2)C(c2ccc(Cl)cc2)N1C(=O)N1CCN(CCCCCCC(=O)NO)CC1 (stereo unspecified)"
tested_system = "Histone deacetylase 8 (Homo sapiens)"
recorded_result = 1220


----------
# Test system: NCI-H1299
# assay name: Antiproliferative activity against human NCI-H1299 cells after 72 hrs by CCK8 assay
# Type: functional, cell-based
# condition label: NCI-H1299, 72 h
measured property: IC50 (µM)

[[record]]
molecule = "CCOc1cc(C(C)(C)C)ccc1C1=NC(c2ccc(Cl)cc2)C(c2ccc(Cl)cc2)N1C(=O)NCCCCCCCC(=O)NO (configuration not stated)"
measured_property = "IC50"
recorded_result = 9.06

[[record]]
molecule = "CCOc1cc(C(C)(C)C)ccc1C1=NC(c2ccc(Cl)cc2)C(c2ccc(Cl)cc2)N1C(=O)N1CCN(CCCCC(=O)NO)CC1 (configuration not stated)"
measured_property = "IC50"
recorded_result = 12.9

[[record]]
molecule = "CCOc1cc(C(C)(C)C)ccc1C1=NC(c2ccc(Cl)cc2)C(c2ccc(Cl)cc2)N1C(=O)NCCCCCC(=O)Nc1ccccc1N (configuration not stated)"
measured_property = "IC50"
recorded_result = 19.1

[[record]]
molecule = "COc1ccc(C2=N[C@@H](c3ccc(Cl)cc3)[C@@H](c3ccc(Cl)cc3)N2C(=O)N2CCNC(=O)C2)c(OC(C)C)c1"
measured_property = "IC50"
recorded_result = 19.8

[[record]]
molecule = "CCOc1cc(C(C)(C)C)ccc1C1=NC(c2ccc(Cl)cc2)C(c2ccc(Cl)cc2)N1C(=O)N1CCN(Cc2ccc(C(=O)NO)cc2)CC1 (configuration not stated)"
measured_property = "IC50"
recorded_result = 3

[[record]]
molecule = "CCOc1cc(C(C)(C)C)ccc1C1=NC(c2ccc(Cl)cc2)C(c2ccc(Cl)cc2)N1C(=O)NCCCCCCCC(=O)Nc1ccccc1N (configuration not stated)"
measured_property = "IC50"
recorded_result = 19.6

[[record]]
molecule = "CCOc1cc(C(C)(C)C)ccc1C1=NC(c2ccc(Cl)cc2)C(c2ccc(Cl)cc2)N1C(=O)NCCCCCC(=O)NO (configuration not stated)"
measured_property = "IC50"
recorded_result = 10.4


----------
# Tested on: NCI-H1299
# assay name: Antiproliferative activity against human NCI-H1299 cells after 72 hrs by CCK8 assay
# Format: functional, cell-based
# condition label: NCI-H1299, 72 h
pIC50: −log10 of the molar value.
Parameter: pIC50. Scope: all listed entries.
measured property: pIC50

[[record]]
compound = "CCOc1cc(C(C)(C)C)ccc1C1=NC(c2ccc(Cl)cc2)C(c2ccc(Cl)cc2)N1C(=O)N1CCC(Nc2ncc(C(=O)NO)cn2)CC1 (stereo not drawn)"
recorded_result = 5.10

[[record]]
compound = "CCOc1cc(C(C)(C)C)ccc1C1=NC(c2ccc(Cl)cc2)C(c2ccc(Cl)cc2)N1C(=O)N1CCC(C(=O)Nc2ccc(/C=C/C(=O)NO)cc2)CC1 (stereo not drawn)"
recorded_result = 5.03

[[record]]
compound = "CCOc1cc(C(C)(C)C)ccc1C1=NC(c2ccc(Cl)cc2)C(c2ccc(Cl)cc2)N1C(=O)N1CCN(c2ncc(C(=O)NO)cn2)CC1 (stereo not drawn)"
recorded_result = 5.26


----------
# tested system: UniProtKB Q13547
# Sequence (Q13547 whole entry): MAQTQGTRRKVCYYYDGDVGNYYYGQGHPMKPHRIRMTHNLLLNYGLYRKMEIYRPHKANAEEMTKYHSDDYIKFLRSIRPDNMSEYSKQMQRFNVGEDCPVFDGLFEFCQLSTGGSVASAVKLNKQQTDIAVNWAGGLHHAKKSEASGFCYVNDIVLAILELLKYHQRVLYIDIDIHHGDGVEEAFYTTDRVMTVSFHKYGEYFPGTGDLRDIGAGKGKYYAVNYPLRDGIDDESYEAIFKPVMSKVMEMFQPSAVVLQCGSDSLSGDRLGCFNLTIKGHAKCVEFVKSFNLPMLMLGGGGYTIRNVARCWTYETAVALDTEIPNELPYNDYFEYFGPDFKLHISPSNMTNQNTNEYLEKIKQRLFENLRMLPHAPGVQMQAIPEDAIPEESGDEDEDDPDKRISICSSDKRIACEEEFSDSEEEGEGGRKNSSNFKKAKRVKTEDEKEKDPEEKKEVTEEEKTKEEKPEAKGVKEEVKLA
# assay name: Inhibition of human recombinant full length HDAC1 using fluorogenic substrate 3 after 30 mins by fluorescence assay
Parameter: IC50. Scope: all listed entries.
measured property: IC50 (nM)

[[record]]
molecule = "CCOc1cc(C(C)(C)C)ccc1C1=NC(c2ccc(Cl)cc2)C(c2ccc(Cl)cc2)N1C(=O)N1CCN(c2ncc(C(=O)NO)cn2)CC1 (stereo not given)"
measured_property = "IC50"
reading_unit = "nM"
reported_relation = "="
recorded_result = 310

[[record]]
molecule = "CCOc1cc(C(C)(C)C)ccc1C1=N[C@@H](c2ccc(Cl)cc2)[C@@H](c2ccc(Cl)cc2)N1C(=O)N1CCN(CCCCCCC(=O)NO)CC1"
measured_property = "IC50"
reading_unit = "nM"
reported_relation = "="
recorded_result = 890

[[record]]
molecule = "CCOc1cc(C(C)(C)C)ccc1C1=NC(c2ccc(Cl)cc2)C(c2ccc(Cl)cc2)N1C(=O)N1CCN(CCCCCC(=O)NO)CC1 (stereo not given)"
measured_property = "IC50"
reading_unit = "nM"
reported_relation = "="
recorded_result = 970

[[record]]
molecule = "CCOc1cc(C(C)(C)C)ccc1C1=NC(c2ccc(Cl)cc2)C(c2ccc(Cl)cc2)N1C(=O)N1CCN(CCCCCCC(=O)NO)CC1 (stereo not given)"
measured_property = "IC50"
reading_unit = "nM"
reported_relation = "="
recorded_result = 820

[[record]]
molecule = "COc1ccc(C2=N[C@@H](c3ccc(Cl)cc3)[C@@H](c3ccc(Cl)cc3)N2C(=O)N2CCNC(=O)C2)c(OC(C)C)c1"
measured_property = "IC50"
reading_unit = "nM"
reported_relation = ">"
recorded_result = 100000

[[record]]
molecule = "CCOc1cc(C(C)(C)C)ccc1C1=NC(c2ccc(Cl)cc2)C(c2ccc(Cl)cc2)N1C(=O)N1CCN(CCCCCCCC(=O)NO)CC1 (stereo not given)"
measured_property = "IC50"
reading_unit = "nM"
reported_relation = "="
recorded_result = 410

[[record]]
molecule = "CCOc1cc(C(C)(C)C)ccc1C1=NC(c2ccc(Cl)cc2)C(c2ccc(Cl)cc2)N1C(=O)NCCCCC(=O)NO (stereo not given)"
measured_property = "IC50"
reading_unit = "nM"
reported_relation = "="
recorded_result = 2920

[[record]]
molecule = "CCOc1cc(C(C)(C)C)ccc1C1=NC(c2ccc(Cl)cc2)C(c2ccc(Cl)cc2)N1C(=O)N1CCN(Cc2ccc(C(=O)NO)cc2)CC1 (stereo not given)"
measured_property = "IC50"
reading_unit = "nM"
reported_relation = "="
recorded_result = 3510

[[record]]
molecule = "CCOc1cc(C(C)(C)C)ccc1C1=NC(c2ccc(Cl)cc2)C(c2ccc(Cl)cc2)N1C(=O)NCCCCC(=O)Nc1ccccc1N (stereo not given)"
measured_property = "IC50"
reading_unit = "nM"
reported_relation = ">"
recorded_result = 20000

[[record]]
molecule = "CCOc1cc(C(C)(C)C)ccc1C1=NC(c2ccc(Cl)cc2)C(c2ccc(Cl)cc2)N1C(=O)NCc1ccc(C(=O)NO)cc1 (stereo not given)"
measured_property = "IC50"
reading_unit = "nM"
reported_relation = "="
recorded_result = 3700

[[record]]
molecule = "CCOc1cc(C(C)(C)C)ccc1C1=NC(c2ccc(Cl)cc2)C(c2ccc(Cl)cc2)N1C(=O)NCCCCCC(=O)Nc1ccccc1N (stereo not given)"
measured_property = "IC50"
reading_unit = "nM"
reported_relation = ">"
recorded_result = 20000

[[record]]
molecule = "CCOc1cc(C(C)(C)C)ccc1C1=NC(c2ccc(Cl)cc2)C(c2ccc(Cl)cc2)N1C(=O)NCCCCCCC(=O)Nc1ccccc1N (stereo not given)"
measured_property = "IC50"
reading_unit = "nM"
reported_relation = "="
recorded_result = 6070

[[record]]
molecule = "CCOc1cc(C(C)(C)C)ccc1C1=N[C@H](c2ccc(Cl)cc2)[C@H](c2ccc(Cl)cc2)N1C(=O)N1CCN(CCCCCCC(=O)NO)CC1"
measured_property = "IC50"
reading_unit = "nM"
reported_relation = "="
recorded_result = 910

[[record]]
molecule = "CCOc1cc(C(C)(C)C)ccc1C1=NC(c2ccc(Cl)cc2)C(c2ccc(Cl)cc2)N1C(=O)N1CCC(C(=O)Nc2ccc(/C=C/C(=O)NO)cc2)CC1 (stereo not given)"
measured_property = "IC50"
reading_unit = "nM"
reported_relation = "="
recorded_result = 970

[[record]]
molecule = "CCOc1cc(C(C)(C)C)ccc1C1=NC(c2ccc(Cl)cc2)C(c2ccc(Cl)cc2)N1C(=O)NCCCCCCC(=O)NO (stereo not given)"
measured_property = "IC50"
reading_unit = "nM"
reported_relation = "="
recorded_result = 890

